Assay: Stability in human simulated gastric fluid
Format: ADME, Stomach
Details: simulated gi fluid
Endpoint: Stability

Molecule	Stability
COC(=O)C(C)(C)NP(=O)(OC[C@H]1O[C@@H](n2cnc3c(N(C)NS(C)(=O)=O)nc(N)nc32)[C@](C)(O)[C@@H]1O)Oc1ccc(Cl)cc1 (stereo partly specified)	Stable
CC(NP(=O)(OC[C@H]1O[C@@H](n2cnc3c(N(C)NS(C)(=O)=O)ncnc32)[C@](C)(O)[C@@H]1O)Oc1ccc(Cl)cc1)C(=O)OCc1ccccc1 (stereo partly specified)	Stable
COC(=O)CNP(=O)(OC[C@H]1O[C@@H](n2cnc3c(N(C)NS(C)(=O)=O)nc(N)nc32)[C@](C)(O)[C@@H]1O)Oc1ccccc1 (stereo partly specified)	Stable
CC(NP(=O)(OC[C@H]1O[C@@H](n2cnc3c(N(C)NS(C)(=O)=O)nc(N)nc32)[C@](C)(O)[C@@H]1O)Oc1ccccc1)C(=O)OCc1ccccc1 (stereo partly specified)	Stable
COC(=O)C(C)(C)NP(=O)(OC[C@H]1O[C@@H](n2cnc3c(N(C)NS(C)(=O)=O)ncnc32)[C@](C)(O)[C@@H]1O)Oc1ccc(Cl)cc1 (stereo partly specified)	Stable

Consider now this further molecule.
Prompt: Could you please provide reported Stability for CC(C)OC(=O)C(C)NP(=O)(OC[C@H]1O[C@@H](n2cnc3c(N(C)NS(C)(=O)=O)ncnc32)[C@](C)(O)[C@@H]1O)Oc1ccc(Cl)cc1 (stereo partly specified) ? Thanks!
Completion: Stable
